# System: EMC-BAC-2
# Assay Explanation: relative viability (nuclei count vs DMSO), 5 days (fraction); higher = more cells survive
# Cond: first compound 0.253 µM
Field 'label' (enum: met / not met). Set to met when relative viability is strictly under 0.5; else not met.

{"columns": ["Molecule", "System Name", "Class"],
 "data": [
  ["Oc1nc(-c2ccc(C(F)(F)F)cc2)nc2c1CSCC2 [XAV939] + Cc1nc(Nc2ncc(C(=O)Nc3c(C)cccc3Cl)s2)cc(N2CCN(CCO)CC2)n1 [Dasatinib] (partner 0.075 µM)", "EMC-BAC-2", "met"],
  ["C=C1C(=O)O[C@@H](CCCCCCCC)[C@@H]1C(=O)O [C-75] + COc1cccc2cc(-c3nc([C@H]4CC[C@H](C(=O)O)CC4)n4ncnc(N)c34)[nH]c12 [OSI-027] (partner 0.5 µM)", "EMC-BAC-2", "met"],
  ["C=C1C(=O)O[C@@H](CCCCCCCC)[C@@H]1C(=O)O [C-75] + CC(=O)Nc1cccc(-n2c(=O)n(C3CC3)c(=O)c3c(Nc4ccc(I)cc4F)n(C)c(=O)c(C)c32)c1 [Trametinib] (partner 0.02 µM)", "EMC-BAC-2", "not met"],
  ["C=C1C(=O)O[C@@H](CCCCCCCC)[C@@H]1C(=O)O [C-75] + CC1(C)CCC(c2ccc(Cl)cc2)=C(CN2CCN(c3ccc(C(=O)NS(=O)(=O)c4ccc(N[C@H](CCN5CCOCC5)CSc5ccccc5)c(S(=O)(=O)C(F)(F)F)c4)cc3)CC2)C1 [Navitoclax] (partner 0.5 µM)", "EMC-BAC-2", "not met"],
  ["Oc1nc(-c2ccc(C(F)(F)F)cc2)nc2c1CSCC2 [XAV939] + Cc1cc(Nc2cc(N3CCN(C)CC3)nc(Sc3ccc(NC(=O)C4CC4)cc3)n2)n[nH]1 [Tozasertib] (partner 0.1 µM)", "EMC-BAC-2", "met"]
]}
